assay: qHTS assay to identify small molecule agonists of the estrogen related receptor (ERR) signaling pathway from Tox21 library (AID 1224849); conditions: ERR reporter cell line, ONE-Glo luciferase, 18 h; at 92.4 µM (top of the series) unless noted; note: nearly all actives have a fitted effect of over 15% in size
The source made the active and inactive calls. Calls come from the whole dose curve.
Please answer using one outcome listed in True (active), False (inactive)

Check the results log: what was the call for `Cc1ccc(C=O)s1` ?
False

Recorded call for `c1ccc(CN(CC2=NCCN2)c2ccccc2)cc1` ?
False

Query: recorded result category for `CCOC(=O)NCCC[Si](OCC)(OCC)OCC` in this test
False

How was `CCOC(=O)CS` classified in this test?
False

Could you check what this test reported for `CCOC(=O)c1cc(=O)c2c(OCC(COc3cccc4oc(C(=O)OCC)cc(=O)c34)OC(=O)[C@@H](N)CCCCN)cccc2o1` ?
False

In this assay, the call recorded for `Nc1ccc(Oc2ccc(N)c(N)c2)cc1` was what?
True

Can you look up the reported call for `CC(C)C(=O)OC/C=C/c1ccccc1` for me?
False

Record lookup: outcome of this test for `CCCCc1ccc2nc(NC(=O)OC)[nH]c2c1` ?
True

Fill in: this test's call for CCOC(=O)COc1ccc2c(c1)CC(NCC(O)c1cccc(Cl)c1)CC2 (stereo not drawn) is ___
False

How did this test come out for `O=C1CCN(c2ccccc2)N1` ?
False

What is the recorded call for this compound in the test? `CCN(CCCc1ccccc1)CCCc1ccccc1`
False

In this assay, the call recorded for `CCOc1ccc(NC(N)=O)cc1` was what?
False

# fetch the recorded call for CCCN(CCC)C(=O)C(CCC(=O)O)NC(=O)c1ccccc1 (stereo not drawn) here
False
